# measurement.target: human FLAP (Homo sapiens (Human), UniProt P20292)
# Sequence (P20292 whole entry): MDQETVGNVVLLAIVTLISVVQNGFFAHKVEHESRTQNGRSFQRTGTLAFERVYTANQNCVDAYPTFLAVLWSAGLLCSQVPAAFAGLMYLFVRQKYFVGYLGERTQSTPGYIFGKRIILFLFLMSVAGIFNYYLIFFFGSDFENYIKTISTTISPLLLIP
# protocol.description: FLAP binding assay (HTRF format)
# settings: Table 6 (additional runs), human FLAP wild type
Counter-ions that a name gives are not always drawn.
Give measured pKi for each item. Keep answers brief.
One number for each entry, as −log10 of the molar value.

Previously resolved entries follow.
CC(C)(CO)CNS(=O)(=O)c1ccccc1-c1ccc(-c2cnc(N)cn2)c(F)c1 | 9.52
Nc1cnc(-c2ccc(-c3ccccc3S(=O)(=O)N3CCC[C@@H]3CO)cc2F)cn1 | 8.33
Nc1ncc(-c2ccc(-c3ccccc3S(=O)(=O)N[C@@H]3CCCNC3=O)cc2F)cn1 [Example 266, trifluoroacetic acid salt] | 6.88

Hi! Can you tell me pKi for each of these compounds?
1. Nc1cnc(-c2ccc(-c3ccccc3S(=O)(=O)NC3CCCC3)cc2F)cn1
2. CS(=O)(=O)c1ccccc1-c1ccc(-c2cnc(N)cn2)c(F)c1
3. CCN(CC)S(=O)(=O)c1ccccc1-c1ccc(-c2cnc(N)cn2)c(F)c1
4. C[C@@H]([C@@H](O)c1ccccc1)N(C)S(=O)(=O)c1ccccc1-c1ccc(-c2cnc(N)cn2)c(F)c1
5. CC(C)(C)NS(=O)(=O)c1ccccc1-c1ccc(-c2ccc(N)nc2)c(F)c1
6. Nc1cnc(-c2ccc(-c3ccccc3S(=O)(=O)N3C[C@@H]4C(N)[C@@H]4C3)cc2F)cn1 (stereo partly shown)
7. Nc1ncc(-c2ccc(-c3ccccc3S(=O)(=O)N[C@H]3CCCNC3=O)cc2F)cn1 [Example 267, trifluoroacetic acid salt]
8. Nc1ncc(-c2ccc(-c3ccccc3S(=O)(=O)N[C@H]3CCCC[C@@H]3O)cc2F)cn1 (racemic)

Reply:
8.46
6.45
8.80
9.40
8.74
8.07
6.73
8.05

Record pKi for all entries; do not skip any.
1. Nc1cnc(-c2ccc(-c3ccccc3S(=O)(=O)N3CCN(c4ncccn4)CC3)cc2F)cn1
2. CC(CO)(CO)NS(=O)(=O)c1ccccc1-c1ccc(-c2cnc(N)cn2)c(F)c1
3. Nc1cnc(-c2ccc(-c3ccccc3S(=O)(=O)C3CC3)cc2F)cn1
4. Nc1cnc(-c2ccc(-c3ccccc3S(=O)(=O)NCCO)cc2F)cn1
5. CN1CCN(S(=O)(=O)c2cc(C(F)(F)F)ccc2-c2ccc(-c3cnc(N)cn3)c(F)c2)CC1

Reply:
[9.30, 9.22, 8.15, 8.21, 9.10]
